# credit: patent US20150111251A1

Please respond with reported koff for every item in the list.
- target-desc: T1, Recombinant Human TNF-α/TNFSF1A (human, UniProt P01375 77-233)
- T1 construct: also called hTNF-α; huTNFα
- T1 sequence (P01375 77-233 limits assumed): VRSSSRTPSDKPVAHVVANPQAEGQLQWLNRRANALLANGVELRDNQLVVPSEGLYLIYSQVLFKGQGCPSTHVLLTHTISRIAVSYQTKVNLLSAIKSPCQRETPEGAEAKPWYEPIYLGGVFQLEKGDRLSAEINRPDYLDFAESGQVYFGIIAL
- assay-protocol: SPR (BIACORE), antibody captured, TNFα in solution
- Experimental: The BIACORE assay (Biacore, Inc, Piscataway, N.J.) determines the affinity of antibodies with kinetic measurements of on-rate and off-rate constants. Binding of antibodies to a target antigen (for example, a purified recombinant target antigen) is determined by surface plasmon resonance-based measurements with a Biacore® 1000 or 3000 instrument (Biacore® AB, Uppsala, Sweden) using running HBS-EP (10 mM HEPES [pH 7.4], 150 mM NaCl, 3 mM EDTA, and 0.005% surfactant P20) at 25° C. […]

**Q:** Quick check: koff of AB356 (antibody, V domains shown, Full-length humanized antibody made in HEK 293-6E; also called hMAK199VH.1/hMAK199VL.2b) VH: EVQLVQSGSELKKPGASVKVSCKASGYTFTNYGMNWVRQAPGQGLEWMGWINTYTGEPTYADDFKGRFVFSLDTSVSTAYLQISSLKAEDTAVYYCARKFLTTVVVTDYAMDYWGQGTTVTVSS VL: DIVMTQSPAFLSVTPGEKVTITCRASQDISNYLNWYQQKPDQAPKLLIYYTSRLQSGVPSRFSGSGSGTDYTFTISSLEAEDAATYYCQQGNTLPPTFGQGTKLEIK ?
**A:** 0.00089 s⁻¹

**Q:** Quick check: koff of AB370 (antibody, V domains shown, Full-length humanized antibody made in HEK 293-6E; also called hMAK199VH.2/hMAK199VL.1a) VH: EVQLVQSGAEVKKPGASVKVSCKASGYTFTNYGMNWVRQAPGQGLEWMGWINTYTGEPTYADDFKGRVTMTTDTSTSTAYMELSSLRSEDTAVYYCARKFLTTVVVTDYAMDYWGQGTTVTVSS VL: DIQMTQSPSSLSASVGDRVTITCRASQDISNYLNWYQQKPGKTVKLLIYYTSRLQSGVPSRFSGSGSGTDYTLTISSLQPEDFATYFCQQGNTLPPTFGQGTKLEIK ?
**A:** 0.0012 s⁻¹

**Q:** Quick check: koff of AB354 (antibody, V domains shown, Full-length humanized antibody made in HEK 293-6E; also called hMAK199VH.1/hMAK199VL.2) VH: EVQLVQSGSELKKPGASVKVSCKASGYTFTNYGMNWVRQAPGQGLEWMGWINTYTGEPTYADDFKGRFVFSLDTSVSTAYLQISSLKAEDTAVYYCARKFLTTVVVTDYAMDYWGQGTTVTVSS VL: DVVMTQSPAFLSVTPGEKVTITCRASQDISNYLNWYQQKPDQAPKLLIKYTSRLQSGVPSRFSGSGSGTDFTFTISSLEAEDAATYYCQQGNTLPPTFGQGTKLEIK ?
**A:** 0.001 s⁻¹

**Q:** Quick check: koff of AB374 (antibody, V domains shown, Full-length humanized antibody made in HEK 293-6E; also called hMAK199VH.2/hMAK199VL.2b) VH: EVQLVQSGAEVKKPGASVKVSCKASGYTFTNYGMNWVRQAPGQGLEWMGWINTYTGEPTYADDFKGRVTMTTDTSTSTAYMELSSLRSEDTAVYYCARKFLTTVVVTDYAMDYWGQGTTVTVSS VL: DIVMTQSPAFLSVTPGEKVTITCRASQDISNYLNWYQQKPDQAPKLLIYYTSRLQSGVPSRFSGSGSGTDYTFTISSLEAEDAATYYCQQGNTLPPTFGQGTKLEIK ?
**A:** 0.0015 s⁻¹

**Q:** Quick check: koff of AB365 (antibody, V domains shown, Full-length humanized antibody made in HEK 293-6E; also called hMAK199VH.1b/hMAK199VL.1b) VH: EVQLVQSGSELKKPGASVKVSCKASGYTFTNYGMNWVRQAPGQGLEWMGWINTYTGEPTYADDFKGRFVFSLDTSVSTAYLQISSLKAEDTAVYFCARKFLTTVVVTDYAMDYWGQGTTVTVSS VL: DIQMTQSPSSLSASVGDRVTITCRASQDISNYLNWYQQKPGKAPKLLIYYTSRLQSGVPSRFSGSGSGTDYTLTISSLQPEDFATYYCQQGNTLPPTFGQGTKLEIK ?
**A:** 0.001 s⁻¹

**Q:** Quick check: koff of AB368 (antibody, V domains shown, Full-length humanized antibody made in HEK 293-6E; also called hMAK199VH.1b/hMAK199VL.2b) VH: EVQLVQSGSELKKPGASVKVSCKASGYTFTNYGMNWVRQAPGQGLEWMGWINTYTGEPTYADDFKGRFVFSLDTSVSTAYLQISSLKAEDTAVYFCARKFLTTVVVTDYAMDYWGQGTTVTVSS VL: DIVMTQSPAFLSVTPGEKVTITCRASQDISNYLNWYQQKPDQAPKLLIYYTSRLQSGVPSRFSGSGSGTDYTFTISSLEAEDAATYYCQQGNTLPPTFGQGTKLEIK ?
**A:** 0.0011 s⁻¹

**Q:** Quick check: koff of AB385 (antibody, V domains shown, Full-length humanized antibody made in HEK 293-6E; also called hMAK199VH.2b/hMAK199VL.2a) VH: EIQLVQSGAEVKKPGASVKVSCKASGYTFTNYGMNWVRQAPGQGLEWMGWINTYTGEPTYADDFKGRVTFTTDTSTSTAYMELSSLRSEDTAVYYCARKFLTTVVVTDYAMDYWGQGTTVTVSS VL: DIVMTQSPAFLSVTPGEKVTITCRASQDISNYLNWYQQKPDQTVKLLIYYTSRLQSGVPSRFSGSGSGTDYTFTISSLEAEDAATYFCQQGNTLPPTFGQGTKLEIK ?
**A:** 0.0019 s⁻¹

**Q:** Quick check: koff of AB352 (antibody, V domains shown, Full-length humanized antibody made in HEK 293-6E; also called hMAK199VH.1/hMAK199VL.1a) VH: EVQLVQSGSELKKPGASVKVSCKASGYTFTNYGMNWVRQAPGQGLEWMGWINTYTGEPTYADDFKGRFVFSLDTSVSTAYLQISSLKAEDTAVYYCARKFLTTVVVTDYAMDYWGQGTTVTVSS VL: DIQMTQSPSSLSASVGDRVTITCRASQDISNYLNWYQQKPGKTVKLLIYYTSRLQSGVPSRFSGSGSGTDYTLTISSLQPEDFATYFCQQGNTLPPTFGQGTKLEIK ?
**A:** 0.00094 s⁻¹

**Q:** Quick check: koff of AB382 (antibody, V domains shown, Full-length humanized antibody made in HEK 293-6E; also called hMAK199VH.2b/hMAK199VL.1a) VH: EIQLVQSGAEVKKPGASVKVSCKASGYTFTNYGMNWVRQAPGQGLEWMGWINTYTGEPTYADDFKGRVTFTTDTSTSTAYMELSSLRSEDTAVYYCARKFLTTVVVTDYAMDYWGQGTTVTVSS VL: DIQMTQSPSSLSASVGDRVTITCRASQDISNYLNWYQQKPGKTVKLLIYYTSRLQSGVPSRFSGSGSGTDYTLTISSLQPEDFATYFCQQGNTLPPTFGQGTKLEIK ?
**A:** 0.0015 s⁻¹

**Q:** Quick check: koff of AB353 (antibody, V domains shown, Full-length humanized antibody made in HEK 293-6E; also called hMAK199VH.1/hMAK199VL.1b) VH: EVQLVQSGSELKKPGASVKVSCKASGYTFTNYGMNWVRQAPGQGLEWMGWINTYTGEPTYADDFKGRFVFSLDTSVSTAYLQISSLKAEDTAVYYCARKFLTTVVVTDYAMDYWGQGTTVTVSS VL: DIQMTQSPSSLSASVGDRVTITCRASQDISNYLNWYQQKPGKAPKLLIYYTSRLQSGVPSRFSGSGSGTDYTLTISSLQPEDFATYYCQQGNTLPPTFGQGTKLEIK ?
**A:** 0.00092 s⁻¹
